Tested on: Hep3B
method.summary: Cell viability analysis (WST-1), Hep3B
Type: cell-based
condition: Homo sapiens, Hep3B, 72 h, Table 4, repeated experiments, drug 10 μM, read-out: survival rate (viability) of cancer cells, Hep3B
Counter-ions that a name gives are not always drawn.
# Lookup of reported viability at 10 µM keyed by entry

compound	unit.text	viability at 10 µM
OC(CNCC(O)C1CCc2cc(F)ccc2O1)C1CCc2cc(F)ccc2O1 (stereo not drawn) [Nebivolol(Bystolic), Nebivolol]	%	44.8
CC(C)N(CCC(C(N)=O)(c1ccccc1)c1ccccn1)C(C)C (stereo not drawn) [Disopyramide Phosphate]	%	113
CC(C)n1c(/C=C/C(O)CC(O)CC(=O)O)c(-c2ccc(F)cc2)c2ccccc21 (stereo not drawn) [Fluvastatin sodium (Lescol), Fluvastatin sodium]	%	109
COc1ccc(-c2nc3ccc(C4=NNC(=O)CC4C)cc3[nH]2)cc1 (stereo not drawn) [Pimobendan (Vetmedin), Pimobendan]	%	94.8
CCCCc1nc(Cl)c(CO)n1Cc1ccc(-c2ccccc2-c2nn[nH]n2)cc1 [Losartan potassium]	%	103
COC(=O)C1=C(C)NC(C)=C(C(=O)OC2CCCN(Cc3ccccc3)C2)C1c1cccc([N+](=O)[O-])c1 (stereo not drawn) [Benidipine hydrochloride]	%	98.8

* * *

viability at 10 µM reference
Test system: HL-60 (Acute Promyelocytic Leukemia)
method.summary: Cell viability analysis (WST-1), HL-60
Assay type: cell-based
condition: Homo sapiens, HL-60; Table 3; drug 10 μM, 72 hours, WST-1, OD450 nm; read-out: survival rate (viability) of cancer cells, HL-60
Structures can show the parent of a compound that is named as a salt.
value.kind: viability at 10 µM (%)

> print(dat)
                                   molecule  unit.text  assay.value
1  CCCNCC(O)COc1ccccc1C(=O)CCc1ccccc1 (centres unmarked) [Propafenone (Rytmonorm), Propafenone]          %          113
2  COCCCOc1cc(C[C@@H](C[C@H](N)[C@@H](O)C[C@H](C(=O)NCC(C)(C)C(N)=O)C(C)C)C(C)C)ccc1OC [Aliskiren hemifumarate]          %         98.5
3             O=C(O)/C=C/c1ccc(Cn2ccnc2)cc1          %          118
4  NS(=O)(=O)c1cc2c(cc1Cl)NC(C(Cl)Cl)NS2(=O)=O (centres unmarked) [Trichlormethiazide (Achletin), Trichlormethiazide]          %          102
5  Clc1ccccc1CN1CCc2sccc2C1 [Ticlopidine HCl]          %          102
6  NC(=O)c1ncn([C@@H]2O[C@H](CO)[C@@H](O)[C@H]2O)c1N          %          110
7  CCCCNc1cc(C(=O)O)cc(S(N)(=O)=O)c1Oc1ccccc1 [Bumetanide]          %         98.3
8  CC(=O)NS(=O)(=O)c1ccc(N)cc1 [sulfacetamide sodium]          %          112

* * *

In this section we review reported viability at 10 µM values for a set of molecules.
Tested on: HL-60 (Acute Promyelocytic Leukemia)
method.summary: Cell viability analysis (WST-1), HL-60
Format: cell-based
condition: Homo sapiens, HL-60; Table 3; drug 10 μM, 72 hours, WST-1, OD450 nm; read-out: survival rate (viability) of cancer cells, HL-60
Where a name gives a salt, the structure may show the parent alone.

molecule	viability at 10 µM, %
CCCSc1nc(N[C@@H]2C[C@H]2c2ccc(F)c(F)c2)c2nnn([C@@H]3C[C@H](OCCO)[C@@H](O)[C@H]3O)c2n1 [Ticagrelor]	93.7
CCOC(=O)[C@H](CCc1ccccc1)N[C@H]1CCc2ccccc2N(CC(=O)O)C1=O [Benazepril hydrochloride]	93.6
CO[C@@H]1[C@@H](OC(N)=O)[C@@H](O)[C@H](Oc2ccc3c(O)c(NC(=O)c4ccc(O)c(CC=C(C)C)c4)c(=O)oc3c2C)OC1(C)C [Novobiocin sodium (Albamycin), Novobiocin sodium]	123
CCN(C)C(=O)Oc1cccc([C@H](C)N(C)C)c1 [Rivastigmine tartrate (Exelon), Rivastigmine tartrate]	103
CC(C)NC[C@H](O)COc1ccc(CCOCC2CC2)cc1 [Levobetaxolol HCl]	107
Cc1cccc(C)c1N=C1NCCCS1 [Xylazine HCl]	116
O=C(O)c1cc(=O)c2ccccc2o1 [Chromocarb]	110

* * *

Each record here notes measured viability at 10 µM.
Tested on: LoVo (Colorectal Adenocarcinoma)
method.summary: Cell viability analysis (WST-1), LoVo
Type: cell-based
condition: Homo sapiens, LoVo, 72 h, Table 4, repeated experiments, drug 10 μM, WST-1, read-out: survival rate (viability) of cancer cells, LoVo
Where a name gives a salt, the structure may show the parent alone.

compound	viability at 10 µM
CC(C)n1c(/C=C/C(O)CC(O)CC(=O)O)c(-c2ccc(F)cc2)c2ccccc21 (stereo not shown) [Fluvastatin sodium (Lescol), Fluvastatin sodium]	100%
C[C@@H]1O[C@@H](O[C@H]2C[C@@H](O)[C@]3(CO)[C@H]4[C@H](O)C[C@]5(C)[C@@H](C6=CC(=O)OC6)CC[C@]5(O)[C@@H]4CC[C@]3(O)C2)[C@H](O)[C@H](O)[C@H]1O [Ouabain]	39.7%
CC(C)N(CCC(C(N)=O)(c1ccccc1)c1ccccn1)C(C)C (stereo not shown) [Disopyramide Phosphate]	105%
COc1cc2nc(N3CCN(C(=O)c4ccco4)CC3)nc(N)c2cc1OC [Prazosin HCl]	95.7%
CCCCc1nc(Cl)c(CO)n1Cc1ccc(-c2ccccc2-c2nn[nH]n2)cc1 [Losartan potassium]	106%
COc1ccc(-c2nc3ccc(C4=NNC(=O)CC4C)cc3[nH]2)cc1 (stereo not shown) [Pimobendan (Vetmedin), Pimobendan]	66.7%
COC(=O)C1=C(C)NC(C)=C(C(=O)OC2CCCN(Cc3ccccc3)C2)C1c1cccc([N+](=O)[O-])c1 (stereo not shown) [Benidipine hydrochloride]	69%
COC(=O)C1=C(C)NC(C)=C(C(=O)OCC(C)C)C1c1ccccc1[N+](=O)[O-] (stereo not shown) [Nisoldipine (Sular), Nisoldipine]	76.9%
CCOC(=O)C1=C(COCCN)NC(C)=C(C(=O)OC)C1c1ccccc1Cl (stereo not shown) [Amlodipine besylate (Norvase), Amlodipine besylate]	85.6%
CCC(C)(C)C(=O)O[C@H]1C[C@@H](C)C=C2C=C[C@H](C)[C@H](CC[C@@H]3C[C@@H](O)CC(=O)O3)[C@H]21 [Simvastatin (Zocor), Simvastatin]	89.3%
OC(CNCC(O)C1CCc2cc(F)ccc2O1)C1CCc2cc(F)ccc2O1 (stereo not shown) [Nebivolol(Bystolic), Nebivolol]	85.3%
CCC[C@H](N[C@@H](C)C(=O)N1[C@H](C(=O)O)C[C@@H]2CCCC[C@@H]21)C(=O)OCC [Perindopril Erbumine (Aceon), Perindopril Erbumine]	83.5%
COCCOC(=O)C1=C(C)NC(C)=C(C(=O)OC/C=C/c2ccccc2)C1c1cccc([N+](=O)[O-])c1 (stereo not shown) [Cilnidipine]	53.7%

* * *

Test system: MCF7 (Mammary Gland, Adenocarcinoma)
method.summary: Cell viability analysis (WST-1), MCF7
Assay type: cell-based
condition: Homo sapiens, MCF7, 72 h, Table 3, drug 10 μM, WST-1, OD450 nm, read-out: survival rate (viability) of cancer cells, MCF7
Counter-ions that a name gives are not always drawn.
Listed compounds paired with reported viability at 10 µM

compound	viability at 10 µM (%)
CCOC(=O)[C@H](CCc1ccccc1)N[C@H]1CCc2ccccc2N(CC(=O)O)C1=O [Benazepril hydrochloride]	126
Cc1cccc(Cc2c[nH]cn2)c1C [Detomidine HCl]	106
CC(=O)O[C@H]1C[C@@H]2CC[C@@H]3[C@H](CC[C@@]4(C)[C@H]3C[C@H]([N+]3(C)CCCCC3)[C@@H]4OC(C)=O)[C@@]2(C)C[C@@H]1[N+]1(C)CCCCC1	110
CC(C)NC[C@H](O)COc1ccc(CCOCC2CC2)cc1 [Levobetaxolol HCl]	85

* * *

System: AGS (Gastric Adenocarcinoma)
method.summary: Cell viability analysis (WST-1), AGS
Assay type: cell-based
condition: 72 h, Table 4, repeated experiments, drug 10 μM, WST-1, read-out: survival rate (viability) of cancer cells, AGS

compound	unit.text	viability at 10 µM
COc1ccc(-c2nc3ccc(C4=NNC(=O)CC4C)cc3[nH]2)cc1 (stereo not drawn)	%	60.8
CC(C)n1c(/C=C/C(O)CC(O)CC(=O)O)c(-c2ccc(F)cc2)c2ccccc21 (stereo not drawn) [Fluvastatin sodium (Lescol), Fluvastatin sodium]	%	52
C[C@@H]1O[C@@H](O[C@H]2C[C@@H](O)[C@]3(CO)[C@H]4[C@H](O)C[C@]5(C)[C@@H](C6=CC(=O)OC6)CC[C@]5(O)[C@@H]4CC[C@]3(O)C2)[C@H](O)[C@H](O)[C@H]1O	%	16.6

* * *

System: HeLa (Cervix Adenocarcinoma)
method.summary: Cell viability analysis (WST-1), HeLa
Format: cell-based
condition: Homo sapiens, HeLa, 72 h, Table 3, drug 10 μM, WST-1, OD450 nm, read-out: survival rate (viability) of cancer cells, HeLa
Structures can show the parent of a compound that is named as a salt.

molecule	subject.of.test	viability at 10 µM, %
CC(=O)Oc1ccc(C(c2ccc(OC(C)=O)cc2)c2ccccn2)cc1	HeLa (Cervix Adenocarcinoma)	89.2
Cc1[nH]c(=O)c(C#N)cc1-c1ccncc1	HeLa (Cervix Adenocarcinoma)	99
CCC(C)(C)C(=O)O[C@H]1C[C@@H](C)C=C2C=C[C@H](C)[C@H](CC[C@@H]3C[C@@H](O)CC(=O)O3)[C@H]21 [Simvastatin (Zocor), Simvastatin]	HeLa (Cervix Adenocarcinoma)	104
O=C(O)c1cc(=O)c2ccccc2o1	HeLa (Cervix Adenocarcinoma)	67.6
CC(=O)NS(=O)(=O)c1ccc(N)cc1 [sulfacetamide sodium]	HeLa (Cervix Adenocarcinoma)	75.9
NCCCCCC(=O)O	HeLa (Cervix Adenocarcinoma)	90.4
CCN(CC)CCOC(=O)C(c1ccccc1)c1ccccc1 [Adiphenine HCl]	HeLa (Cervix Adenocarcinoma)	96.4
CCOC(=O)[C@H](CCc1ccccc1)N[C@H]1CCc2ccccc2N(CC(=O)O)C1=O [Benazepril hydrochloride]	HeLa (Cervix Adenocarcinoma)	75.9
CCOC(=O)[C@H](CCc1ccccc1)N[C@@H](C)C(=O)N1[C@H](C(=O)O)C[C@@H]2CCC[C@@H]21	HeLa (Cervix Adenocarcinoma)	84.3
CCCSc1nc(N[C@@H]2C[C@H]2c2ccc(F)c(F)c2)c2nnn([C@@H]3C[C@H](OCCO)[C@@H](O)[C@H]3O)c2n1	HeLa (Cervix Adenocarcinoma)	126
CCC(NC(C)C)C(O)c1ccc(O)c(O)c1 (stereo not shown) [Isoetharine Mesylate]	HeLa (Cervix Adenocarcinoma)	81.6
CC1Cc2ccccc2N1NC(=O)c1ccc(Cl)c(S(N)(=O)=O)c1 (stereo not shown) [Indapamide (Lozol), Indapamide]	HeLa (Cervix Adenocarcinoma)	67.9
NS(=O)(=O)c1cc2c(cc1Cl)NC(C(Cl)Cl)NS2(=O)=O (stereo not shown) [Trichlormethiazide (Achletin), Trichlormethiazide]	HeLa (Cervix Adenocarcinoma)	85.7
NC(=O)c1ncn([C@@H]2O[C@H](CO)[C@@H](O)[C@H]2O)c1N	HeLa (Cervix Adenocarcinoma)	88.4
CC(C)OC(=O)C(C)(C)Oc1ccc(C(=O)c2ccc(Cl)cc2)cc1 [Fenofibrate (Tricor, Trilipix), Fenofibrate]	HeLa (Cervix Adenocarcinoma)	98.3
Cc1c(OCC(F)(F)F)ccnc1C[S@@+]([O-])c1nc2ccccc2[nH]1	HeLa (Cervix Adenocarcinoma)	105
